STUDY SYSTEM: binding partner (antigen) of C5A (XPA23)
ASSAY OVERVIEW: Biacore, K-off, fold vs original
Simple rule here: fold difference in affinity vs original less than 1 fold is t, otherwise f.

binder="C5A (XPA23) VH M57L (antibody, V domains shown) VH: EVQLLESGGGLVQPGGSLRLSCAASGFTFSKYFMFWVRQAPGKGLEWVSVISPSGGLTRYADSVKGRFTISRDNSKNTLYLQMNSLRAEDTAVYYCARVGYGGNSDYWGQGTLVTVSS VL: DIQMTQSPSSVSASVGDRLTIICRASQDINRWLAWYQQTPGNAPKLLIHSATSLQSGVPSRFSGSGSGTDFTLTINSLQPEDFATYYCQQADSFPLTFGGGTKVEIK" cat=t
binder="C5A (XPA23) VH G55I (antibody, V domains shown) VH: EVQLLESGGGLVQPGGSLRLSCAASGFTFSKYFMFWVRQAPGKGLEWVSVISPSIGMTRYADSVKGRFTISRDNSKNTLYLQMNSLRAEDTAVYYCARVGYGGNSDYWGQGTLVTVSS VL: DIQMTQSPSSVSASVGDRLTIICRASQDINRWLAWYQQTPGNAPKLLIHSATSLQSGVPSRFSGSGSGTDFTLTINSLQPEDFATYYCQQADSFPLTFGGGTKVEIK" cat=t
binder="C5A (XPA23) VH T58P (antibody, V domains shown) VH: EVQLLESGGGLVQPGGSLRLSCAASGFTFSKYFMFWVRQAPGKGLEWVSVISPSGGMPRYADSVKGRFTISRDNSKNTLYLQMNSLRAEDTAVYYCARVGYGGNSDYWGQGTLVTVSS VL: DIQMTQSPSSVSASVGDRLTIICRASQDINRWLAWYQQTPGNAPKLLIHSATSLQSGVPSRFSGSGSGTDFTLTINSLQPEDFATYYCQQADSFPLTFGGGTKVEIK" cat=f
binder="C5A (XPA23) VH P53V (antibody, V domains shown) VH: EVQLLESGGGLVQPGGSLRLSCAASGFTFSKYFMFWVRQAPGKGLEWVSVISVSGGMTRYADSVKGRFTISRDNSKNTLYLQMNSLRAEDTAVYYCARVGYGGNSDYWGQGTLVTVSS VL: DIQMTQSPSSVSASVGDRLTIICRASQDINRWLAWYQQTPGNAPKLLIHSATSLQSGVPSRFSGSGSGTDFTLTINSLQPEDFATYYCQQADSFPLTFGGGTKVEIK" cat=f
binder="C5A (XPA23) VH N104A (antibody, V domains shown) VH: EVQLLESGGGLVQPGGSLRLSCAASGFTFSKYFMFWVRQAPGKGLEWVSVISPSGGMTRYADSVKGRFTISRDNSKNTLYLQMNSLRAEDTAVYYCARVGYGGASDYWGQGTLVTVSS VL: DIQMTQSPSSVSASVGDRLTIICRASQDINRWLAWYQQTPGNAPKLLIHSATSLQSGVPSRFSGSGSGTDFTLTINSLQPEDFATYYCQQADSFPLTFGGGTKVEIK" cat=f
